compounds and their reported pEC50
target: Ba/F3 stable cells (Homo sapiens, UniProt P00533, DUP771-773, cells depend on it); construct: EC50 Ba/F3-EGFR H773-V774insNPH; other: Ba/F3-EGFR H773-V774insNPH cells, 72 h, CCK-8; experiment: EC50 assay: Ba/F3 stable cell proliferation (CCK-8, 72 h); conditions: Ba/F3-EGFR H773-V774insNPH cells
Sequence (P00533 with tags, fused parts or gaps DUP771-773): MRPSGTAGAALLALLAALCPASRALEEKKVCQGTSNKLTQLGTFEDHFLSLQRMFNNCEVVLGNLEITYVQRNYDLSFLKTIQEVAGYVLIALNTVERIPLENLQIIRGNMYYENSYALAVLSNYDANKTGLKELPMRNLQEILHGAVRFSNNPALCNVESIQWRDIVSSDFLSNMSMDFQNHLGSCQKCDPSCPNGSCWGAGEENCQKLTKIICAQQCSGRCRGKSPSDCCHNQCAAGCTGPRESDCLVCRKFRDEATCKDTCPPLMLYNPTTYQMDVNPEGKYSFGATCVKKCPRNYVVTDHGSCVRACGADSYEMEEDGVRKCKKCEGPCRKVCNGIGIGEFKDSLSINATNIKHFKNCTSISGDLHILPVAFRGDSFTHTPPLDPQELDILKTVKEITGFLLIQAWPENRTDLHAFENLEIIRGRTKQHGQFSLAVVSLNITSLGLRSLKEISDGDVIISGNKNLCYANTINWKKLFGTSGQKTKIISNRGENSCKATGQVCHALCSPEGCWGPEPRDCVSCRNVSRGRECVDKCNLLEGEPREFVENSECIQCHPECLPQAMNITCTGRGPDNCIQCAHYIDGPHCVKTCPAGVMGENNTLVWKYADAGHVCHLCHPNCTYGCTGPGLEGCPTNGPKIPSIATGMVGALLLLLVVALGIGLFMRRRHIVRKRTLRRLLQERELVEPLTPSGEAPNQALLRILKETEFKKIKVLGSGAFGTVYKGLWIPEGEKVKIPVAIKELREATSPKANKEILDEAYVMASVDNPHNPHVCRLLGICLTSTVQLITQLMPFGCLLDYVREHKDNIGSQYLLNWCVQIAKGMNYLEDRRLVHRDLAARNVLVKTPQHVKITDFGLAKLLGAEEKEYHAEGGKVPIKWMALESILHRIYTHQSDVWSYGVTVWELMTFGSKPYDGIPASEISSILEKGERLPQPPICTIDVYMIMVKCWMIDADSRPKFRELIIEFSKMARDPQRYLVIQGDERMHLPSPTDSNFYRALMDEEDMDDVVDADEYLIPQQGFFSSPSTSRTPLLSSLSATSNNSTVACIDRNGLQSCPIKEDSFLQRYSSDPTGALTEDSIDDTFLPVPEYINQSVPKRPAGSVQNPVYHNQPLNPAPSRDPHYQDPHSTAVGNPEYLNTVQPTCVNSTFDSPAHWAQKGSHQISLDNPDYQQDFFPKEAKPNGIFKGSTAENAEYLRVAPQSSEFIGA
pEC50: −log10 of the molar value.

query: Form field: reported pEC50 of C=CC(=O)NCC1COc2cc3ncnc(Nc4ccc(Cl)c(Cl)c4F)c3cc21 (centres unmarked) [Compound 34]
result: ≥ 6.70

query: Suppose we examine the compound C#CC(=O)N[C@H]1C[C@H](Oc2cc3c(Nc4cccc5c4CCC5)ncnc3cc2OC)C1 [Compound 44] ; what pEC50 value has been reported?
result: ≥ 6.70

query: Quick one: pEC50 for C=CC(=O)N1CCC(Oc2cc3c(NCc4ccccc4Cl)ncnc3cc2OC)CC1 [Compound 110] ?
result: ≥ 6.70

query: What does the data say about its pEC50? Entry: C=CC(=O)N1CCC=C(c2cc3c(Nc4ccc(Cl)c(Cl)c4F)ncnc3cc2OC)C1 [Compound 186]
result: ≥ 6.70

query: Which pEC50 reading was recorded for the compound C=CC(=O)NC1CC(Oc2cc3c(Nc4cccc(Cl)c4F)ncnc3cc2OC)C1 (centres unmarked) [Compound 74] ?
result: ≥ 6.70

---

molecular target: Ba/F3 stable cells (Homo sapiens, UniProt P00533, INS763FQEA, cells depend on it); construct: EC50 Ba/F3-EGFR A763-Y764insFQEA; other: Ba/F3-EGFR A763-Y764insFQEA cells, 72 h, CCK-8; assay: EC50 assay: Ba/F3 stable cell proliferation (CCK-8, 72 h); settings: Ba/F3-EGFR A763-Y764insFQEA cells
Sequence (P00533 with tags, fused parts or gaps INS763FQEA): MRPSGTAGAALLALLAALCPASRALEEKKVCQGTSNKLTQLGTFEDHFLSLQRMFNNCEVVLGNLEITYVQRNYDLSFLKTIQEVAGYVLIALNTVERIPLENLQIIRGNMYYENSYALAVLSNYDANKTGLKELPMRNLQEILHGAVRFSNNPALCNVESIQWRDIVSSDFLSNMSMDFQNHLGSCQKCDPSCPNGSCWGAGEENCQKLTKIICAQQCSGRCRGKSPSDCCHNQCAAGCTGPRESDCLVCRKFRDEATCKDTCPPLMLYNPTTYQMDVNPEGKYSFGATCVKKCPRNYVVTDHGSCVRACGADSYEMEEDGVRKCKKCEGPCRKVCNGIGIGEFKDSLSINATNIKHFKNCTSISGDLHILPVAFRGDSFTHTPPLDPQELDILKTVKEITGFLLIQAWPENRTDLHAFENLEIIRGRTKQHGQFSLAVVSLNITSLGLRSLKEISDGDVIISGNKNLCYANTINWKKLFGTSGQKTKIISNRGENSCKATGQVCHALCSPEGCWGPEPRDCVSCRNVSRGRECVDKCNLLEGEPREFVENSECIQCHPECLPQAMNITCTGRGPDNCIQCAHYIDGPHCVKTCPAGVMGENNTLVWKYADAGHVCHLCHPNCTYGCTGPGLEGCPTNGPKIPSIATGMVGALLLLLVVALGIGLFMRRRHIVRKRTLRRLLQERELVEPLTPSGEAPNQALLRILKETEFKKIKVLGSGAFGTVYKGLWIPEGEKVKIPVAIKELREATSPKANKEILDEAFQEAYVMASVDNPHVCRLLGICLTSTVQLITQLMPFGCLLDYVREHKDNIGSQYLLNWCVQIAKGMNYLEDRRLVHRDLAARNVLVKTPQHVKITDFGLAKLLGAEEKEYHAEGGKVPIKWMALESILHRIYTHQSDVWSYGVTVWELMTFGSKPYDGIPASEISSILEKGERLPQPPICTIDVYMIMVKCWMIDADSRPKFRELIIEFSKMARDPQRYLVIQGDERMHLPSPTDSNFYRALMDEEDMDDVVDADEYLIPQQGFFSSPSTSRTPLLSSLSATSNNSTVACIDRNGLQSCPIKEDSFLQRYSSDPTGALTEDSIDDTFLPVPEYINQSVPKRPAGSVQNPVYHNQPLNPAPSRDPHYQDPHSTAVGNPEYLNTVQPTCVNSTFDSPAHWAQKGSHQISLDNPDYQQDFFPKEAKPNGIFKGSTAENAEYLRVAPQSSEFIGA
PARAMETER: EC50

Illustrative cases are given below, each with its answer.
- COMPOUND: "CC#CC(=O)NC1CC(Oc2cc3c(Nc4ccc(Cl)c(Cl)c4F)ncnc3cc2OC)C1 (centres unmarked)"
  STUDY_TARGET: "Ba/F3 stable cells (Homo sapiens, UniProt P00533, INS763FQEA, cells depend on it)"
  EC50: "≤ 200 nM"
- COMPOUND: "C=CC(=O)NC1CC(Oc2cc3c(Nc4cccc5c4CCC5)ncnc3cc2OC)C1 (centres unmarked)"
  STUDY_TARGET: "Ba/F3 stable cells (Homo sapiens, UniProt P00533, INS763FQEA, cells depend on it)"
  EC50: "200 to 1000 nM"
- COMPOUND: "C=CC(=O)NC1COc2c(-c3cnc4ccccc4c3)c3c(N)ncnc3n2C1 (centres unmarked)"
  STUDY_TARGET: "Ba/F3 stable cells (Homo sapiens, UniProt P00533, INS763FQEA, cells depend on it)"
  EC50: "≤ 200 nM"
- COMPOUND: "C=CC(=O)N1CCC(Oc2cc3c(NCc4cc(Cl)ccc4Cl)ncnc3cc2OC)CC1"
  STUDY_TARGET: "Ba/F3 stable cells (Homo sapiens, UniProt P00533, INS763FQEA, cells depend on it)"
  EC50: "≤ 200 nM"
- COMPOUND: "C=CS(=O)(=O)N1CCC(Oc2c(OC)cc3ncnc4c3c2NC(=O)N4c2ccc(Cl)c(Cl)c2)CC1"
  STUDY_TARGET: "Ba/F3 stable cells (Homo sapiens, UniProt P00533, INS763FQEA, cells depend on it)"
  EC50: "≤ 200 nM"

query: Quick check: EC50 of COc1cc2ncnc(Nc3ccc(Cl)c(Cl)c3F)c2cc1C1=CCCN(C#N)C1 ?
result: 200 to 1000 nM

query: Would you kindly share the measured EC50 for C=CC(=O)NC1CC(Oc2cc3c(Nc4ccc(C)c5c4CCC5)ncnc3cc2OC)C1 (centres unmarked) ?
result: 200 to 1000 nM

query: EC50 for C=CC(=O)N1CCC(Oc2cc3c(Nc4ccc5ccccc5n4)ncnc3cc2OC)CC1 ?
result: ≤ 200 nM
